- assay remarks: Selectivity index, ratio of CC50 for cytotoxicity against mouse NCTC clone 929 cells assessed as inhibition of cell growth to IC50 for antileishmanial activity against Leishmania infantum MHOM/BR/1972/LD amastigotes infected in mouse Peritoneal macrophage cells assessed as inhibition of parasite growth
- Format: toxicity, cell-based
- assay setup: read-out: Ratio CC50/IC50
Recorded selectivity ratio values for a group of molecules are listed next.
value type: selectivity ratio

- molecule: "C=CCc1cc(OC)c(OCc2ccc(OC)cc2)c(Oc2ccc(CN3CCOCC3)cc2OC)c1"
  value type: "selectivity ratio"
  qualifying sign: ">"
  measured value: 20.6
- molecule: "CCCc1ccc(Oc2cc(CN3CCOCC3)cc(OC)c2OCc2ccc(OC)cc2)c(OC)c1"
  value type: "selectivity ratio"
  qualifying sign: ">"
  measured value: 12.2
- molecule: "CCCc1cc(OC)c(OCc2ccc(OC)cc2)c(Oc2ccc(CN3CCOCC3)cc2OC)c1"
  value type: "selectivity ratio"
  qualifying sign: "="
  measured value: 9.7
- molecule: "CCCc1ccc(Oc2cc(CN3CCCCC3)cc(OC)c2OCc2ccc(OC)cc2)cc1"
  value type: "selectivity ratio"
  qualifying sign: "="
  measured value: 7.6
- molecule: "CCCCCCCCCCCCCCCCOP(=O)([O-])OCC[N+](C)(C)C [MILTEFOSINE]"
  value type: "selectivity ratio"
  qualifying sign: "="
  measured value: 18.4
- molecule: "C=CCc1ccc(Oc2cc(CC=C)cc(OC)c2OCCN2CCOCC2)c(OC)c1"
  value type: "selectivity ratio"
  qualifying sign: "="
  measured value: 6.6
- molecule: "C=CCc1cc(OC)c(OC(C)=O)c(Oc2ccccc2OC)c1"
  value type: "selectivity ratio"
  qualifying sign: ">"
  measured value: 6.1
- molecule: "C=CCc1cc(OC)c(OCc2ccc(OC)cc2)c(Oc2ccccc2OC)c1"
  value type: "selectivity ratio"
  qualifying sign: ">"
  measured value: 8.3
- molecule: "CCCc1ccc(Oc2cc(CN3CCOCC3)cc(OC)c2OCc2ccc(C(F)(F)F)cc2)c(OC)c1"
  value type: "selectivity ratio"
  qualifying sign: ">"
  measured value: 15.1
- molecule: "C=CCc1ccc(Oc2cc(CC=C)cc(OC)c2OCCN2CCCC2)c(OC)c1"
  value type: "selectivity ratio"
  qualifying sign: "="
  measured value: 6
- molecule: "CCCc1cc(OC)c(OCc2ccc(OC)cc2)c(Oc2ccc(CN3CCCCC3)cc2OC)c1"
  value type: "selectivity ratio"
  qualifying sign: "="
  measured value: 3.9
- molecule: "CCCc1ccc(Oc2cc(CN3CCOCC3)cc(OC)c2OCc2cc(OC)c(OC)c(OC)c2)c(OC)c1"
  value type: "selectivity ratio"
  qualifying sign: ">"
  measured value: 7.6
- molecule: "CCCc1ccc(Oc2cc(CN3CCOCC3)cc(OC)c2OCc2ccc(OC)cc2)cc1"
  value type: "selectivity ratio"
  qualifying sign: ">"
  measured value: 13.1
- molecule: "C=CCc1ccc(Oc2cc(CC=C)cc(OC)c2OCC(=O)N2CCCC2)c(OC)c1"
  value type: "selectivity ratio"
  qualifying sign: "="
  measured value: 2.6
- molecule: "COc1ccc(COc2c(OC)cc(CN3CCOCC3)cc2Oc2ccc(CN3CCOCC3)cc2OC)cc1"
  value type: "selectivity ratio"
  qualifying sign: "="
  measured value: 2.7
